target: recombinant hTAP1 (human tocopherol associated protein 1, hSEC14L2) (Homo sapiens, UniProt O76054); assay: isoelectric point mobility shift competition with phosphatidylinositol; settings: read-out: 50% displacement of PI
Sequence (O76054 whole entry): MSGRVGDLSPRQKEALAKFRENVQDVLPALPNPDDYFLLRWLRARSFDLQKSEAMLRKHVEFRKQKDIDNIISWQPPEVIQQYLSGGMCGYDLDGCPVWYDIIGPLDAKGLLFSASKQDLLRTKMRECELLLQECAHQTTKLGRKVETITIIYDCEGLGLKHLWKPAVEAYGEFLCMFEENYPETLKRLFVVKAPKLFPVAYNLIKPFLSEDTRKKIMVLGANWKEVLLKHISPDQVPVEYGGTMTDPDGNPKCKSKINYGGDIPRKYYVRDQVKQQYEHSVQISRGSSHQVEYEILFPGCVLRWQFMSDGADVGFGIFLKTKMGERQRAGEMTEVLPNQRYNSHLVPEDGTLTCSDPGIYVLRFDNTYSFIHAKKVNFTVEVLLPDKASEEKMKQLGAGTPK
pIC50: −log10 of the molar value.
RECORDED_METRIC: pIC50

Cc1c(C)c2c(c(C)c1O)CC[C@@](C)(CCC[C@H](C)CCC[C@H](C)CCCC(C)C)O2 : 4.30
